# assay.overview: qHTS assay to identify small molecule HDAC inhibitors - cell viability counter screen (AID 1259365); note: nearly all actives have a fitted effect of over 50% in size
# condition.label: HCT-116 viability, CellTiter-Glo ATP luminescence, 2 h; series mostly up to 92.4 µM
# Excerpt: U.S. Tox21 Program National Center for Advancing Translational Sciences [NCATS] NIH Chemical Genomics Center [NCGC] U.S. Environmental Protection Agency [EPA] National Institutes of Environmental Health Sciences [NIEHS] National Toxicology Program [NTP] U.S. Food and Drug Administration [FDA] Tox21 Assay Overview: Histone deacetylases (HDACs) are a group of epigenetic enzymes that regulate gene expression by histone deacetylation. […]
The source made the active and inactive calls. Calls come from the whole dose curve; as a rule, active = well fitted cell-killing curve with a large enough effect in the repeat runs; inconclusive = weak or mixed curves, or effect the other way; inactive = flat fitted curve, though single readings scatter.
// classify into active, inactive

Use these answered entries as a reference point.
smiles.repr: CC(=O)[O][Pb]([c]1ccccc1)([c]1ccccc1)[c]1ccccc1
answer.label: active

smiles.repr: S=C=Nc1ccccc1
answer.label: inactive

smiles.repr: CCOP(=O)(Sc1ccccc1)Sc1ccccc1
answer.label: inactive

smiles.repr: [O-][Cl+3]([O-])([O-])O
answer.label: inactive

smiles.repr: O=C(Cl)c1ccccc1F
answer.label: inactive

For `C=CCOC(=O)c1ccccc1N` , what call appears in the results of this test?
inactive

For `COP(=S)(OC)Oc1nc(Cl)c(Cl)cc1Cl` , what call appears in the results of this test?
inactive

---

# assay.overview: qHTS assay to test for compound auto fluorescence at 590 nm (red) in HEK293 cells (AID 720679); note: % is set by controls: 0 for no effect and ±100 for the full control effect
# condition.label: red autofluorescence 540/590 nm; series mostly up to 91.3 µM
Activity calls are given as the source filed them. The call rests on the fitted dose curve; in most records, active means well fitted curve in the direction sought with a large enough effect in the repeat runs; inconclusive means weak or mixed curves; inactive means flat fitted curve, though single readings scatter.
fluorescence, % of fluorescent control listing for selected molecules.

molecule: COc1ccc(Cc2nccc3cc(OC)c(OC)cc23)cc1OC
reported.measurement: -0.0717% [at 18.6 µM] (inactive)

Here is the next item to consider.
Would you mind telling me what fluorescence, % of fluorescent control value was observed for CC(C)c1c(CN(C)C(C)Cc2ccccc2)n(C)n(-c2ccccc2)c1=O (stereo not drawn) ?
-0.993% [at 18.6 µM] (inactive)

---

# assay.overview: qHTS assay for small molecule agonists of the p53 signaling pathway (AID 651631); note: nearly all actives have a fitted effect of over 15% in size
# condition.label: HCT-116 p53RE-bla reporter, beta-lactamase FRET ratio, 16 h; series mostly up to 73.3 µM
Inconclusive results are not listed. The source made the active and inactive calls. Calls come from the whole dose curve.
// classify into yes (1) = active, no (0) = inactive

compound: O=P(Cl)(Cl)Cl
answer.label: no (0)

compound: O=C1C2(Cl)C3(Cl)C4(Cl)C(Cl)(Cl)C5(Cl)C3(Cl)C1(Cl)C5(Cl)C24Cl (centres undefined)
answer.label: yes (1)

compound: CC(C)Br
answer.label: no (0)

compound: [O]=[Cr][O][Cr]=[O]
answer.label: no (0)

compound: Cc1cc(C2CC2)nc(Nc2ccccc2)n1
answer.label: no (0)

compound: CN/C(=N\[N+](=O)[O-])NCc1cnc(Cl)s1
answer.label: no (0)

compound: Nc1cc(Cl)ccc1Cl
answer.label: no (0)

compound: C=CCBr
answer.label: no (0)

compound: OCC(Br)CBr (centres undefined)
answer.label: no (0)

compound: CC(C)(C)c1ccc(OP(=O)(Oc2ccccc2)Oc2ccccc2)cc1
answer.label: no (0)

For `CN=C=O` , what call appears in the results of this test?
no (0)

For `CO/N=C(\C(=O)OC)c1ccccc1CO/N=C(\C)c1cccc(C(F)(F)F)c1` , what call appears in the results of this test?
yes (1)

For `CCCCON=O` , what call appears in the results of this test?
no (0)

For `COc1ccc2c(c1OC)C(=O)O[C@@H]2[C@H]1c2cc3c(cc2CCN1C)OCO3` , what call appears in the results of this test?
no (0)
